Target: T1, ΔNp63α (Homo sapiens, UniProt Q9H3D4-2 1-586)
T1 sequence: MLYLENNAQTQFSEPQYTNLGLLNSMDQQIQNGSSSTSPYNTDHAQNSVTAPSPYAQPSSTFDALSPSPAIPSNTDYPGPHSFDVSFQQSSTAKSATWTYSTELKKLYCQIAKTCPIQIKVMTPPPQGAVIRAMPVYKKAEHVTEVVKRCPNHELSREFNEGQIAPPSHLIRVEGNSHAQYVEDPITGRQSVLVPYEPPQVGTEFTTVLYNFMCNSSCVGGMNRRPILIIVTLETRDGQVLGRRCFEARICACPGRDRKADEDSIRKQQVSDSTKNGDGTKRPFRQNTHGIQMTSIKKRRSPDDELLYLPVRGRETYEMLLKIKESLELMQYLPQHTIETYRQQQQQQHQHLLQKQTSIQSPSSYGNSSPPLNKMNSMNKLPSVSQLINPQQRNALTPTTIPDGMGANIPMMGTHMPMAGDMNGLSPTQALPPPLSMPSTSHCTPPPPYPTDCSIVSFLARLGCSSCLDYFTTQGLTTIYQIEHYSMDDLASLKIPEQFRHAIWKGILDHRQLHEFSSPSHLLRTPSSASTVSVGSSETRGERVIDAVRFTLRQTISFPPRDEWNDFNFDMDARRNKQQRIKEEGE
Test: anisotropy competition; 25 mM NaPi, 225 mM NaCl, 10% v/v glycerol, 5 mM DTT, 0.2 mg/mL BSA, 22°C; 20 nM labelled DNA; pH not stated for the binding assay
Settings: protein: recombinant; tags: N-terminal 6xHis-lipoyl-TEV tag, cleaved; chain copies: 4
MEASURED PROPERTY: binding signal

Could I get binding signal for every one of these entries?
1. A5C (dsDNA) DNA 1: CGCGGACCTGTCCGGACATGTCCCGC DNA 2: GCGGGACATGTCCGGACAGGTCCGCG
2. T6C (dsDNA) DNA 1: CGCGGACACGTCCGGACATGTCCCGC DNA 2: GCGGGACATGTCCGGACGTGTCCGCG
3. G7C (dsDNA) DNA 1: CGCGGACATCTCCGGACATGTCCCGC DNA 2: GCGGGACATGTCCGGAGATGTCCGCG
4. G2C (dsDNA) DNA 1: CGCGCACATGTCCGGACATGTCCCGC DNA 2: GCGGGACATGTCCGGACATGTGCGCG

-- reply
0.3 ΔlogKd vs ref
0.25 ΔlogKd vs ref
1.33 ΔlogKd vs ref
0.15 ΔlogKd vs ref
